target: hEP2/Gqs5 (Homo sapiens, UniProt P43116); construct: expressed in transfected cells; host or cells: HEK-293(EBNA); test: FLIPR calcium signal, hEP2; assay type: cell-based; details: FLIPR Ca2+ signal, HEK-293(EBNA); read-out: FUNCTIONAL EC50 HEP2
Sequence (P43116 whole entry): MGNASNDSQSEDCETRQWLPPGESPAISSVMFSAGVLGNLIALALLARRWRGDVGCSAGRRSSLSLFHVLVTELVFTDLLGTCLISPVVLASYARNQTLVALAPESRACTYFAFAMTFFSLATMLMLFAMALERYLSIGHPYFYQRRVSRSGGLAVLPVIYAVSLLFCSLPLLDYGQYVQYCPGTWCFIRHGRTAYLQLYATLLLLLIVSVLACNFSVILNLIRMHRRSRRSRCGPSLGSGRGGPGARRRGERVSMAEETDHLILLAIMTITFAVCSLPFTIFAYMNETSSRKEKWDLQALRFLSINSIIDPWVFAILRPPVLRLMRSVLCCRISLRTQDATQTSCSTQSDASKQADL
# 1.0 = EC50 below 500 nM (exclusive); 0.0 = EC50 at/above 500 nM

Known results for compounds:
> print(dat)
                                    compound  answer.label
 1  CC(C)(CO)c1ccc([C@@H]2[C@@H](CCCCCCC(=O)O)[C@H](Cl)C[C@H]2O)cc1           0.0
 2  CCCC1(C(O)c2cccc([C@@H]3[C@@H](C/C=C\CCCC(=O)O)[C@H](Cl)C[C@H]3O)c2)CCC1 (some centres unmarked)           1.0
 3  COC(=O)CCC/C=C\C[C@@H]1[C@@H](c2ccc(C(O)C(C)C)cc2)[C@H](O)C[C@H]1Cl (some centres unmarked)           0.0
 4  CCCC1(C(O)c2ccc([C@@H]3[C@@H](CCCCCCC(=O)O)[C@H](Cl)C[C@H]3O)cc2)CCC1 (some centres unmarked)           0.0
 5  COC(=O)CCCCCC[C@H]1C(=O)C[C@@H](O)[C@@H]1c1ccc(C)cc1           0.0
 6  CC(C)(C)c1ccc([C@H]2[C@H](O)CC(=O)[C@@H]2CCCCCCC(=O)O)cc1           1.0
 7  CCCC1(C(O)c2cccc([C@H]3[C@H](O)CC(=O)[C@@H]3CCCCCCC(=O)OC)c2)CCC1 (some centres unmarked)           0.0
 8  COC(=O)CCCCCC[C@@H]1[C@@H](c2ccc(C3(O)CCC3)cc2)[C@H](O)C[C@H]1Cl           0.0
 9  CC(C)(C)C(O)c1ccc([C@@H]2[C@@H](CCCCCCC(=O)O)[C@H](Cl)C[C@H]2O)cc1 (some centres unmarked)           0.0
10  CCCC1(C(O)c2ccc([C@H]3[C@H](O)CC(=O)[C@@H]3CCCCCCC(=O)OC)cc2)CCC1 (some centres unmarked)           0.0

Next:
Data request: Consider the compound CC(C)(C)c1ccc([C@@H]2[C@@H](CCCCCCC(=O)O)[C@H](Cl)C[C@H]2O)cc1 [drawing 70] . Is its EC50 strictly less than 500 nM?
Data returned: 1.0

###

log10 of EC50 overview
molecular target: hTP (Homo sapiens); construct: expressed in transfected cells; host or cells: HEK-293(EBNA); experiment: FLIPR calcium signal, hTP; format: cell-based; conditions: FLIPR Ca2+ signal, HEK-293(EBNA); read-out: FUNCTIONAL EC50 HTP
Sequence (P21731 whole entry): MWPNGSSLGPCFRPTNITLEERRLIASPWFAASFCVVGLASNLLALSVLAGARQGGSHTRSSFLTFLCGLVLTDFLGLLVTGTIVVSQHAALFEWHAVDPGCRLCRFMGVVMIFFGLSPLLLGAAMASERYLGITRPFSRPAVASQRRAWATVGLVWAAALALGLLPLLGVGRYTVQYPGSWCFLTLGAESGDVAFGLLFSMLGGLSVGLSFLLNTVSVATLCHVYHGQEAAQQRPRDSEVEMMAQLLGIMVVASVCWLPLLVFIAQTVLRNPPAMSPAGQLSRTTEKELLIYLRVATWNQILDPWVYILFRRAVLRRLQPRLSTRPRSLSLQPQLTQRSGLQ
// units: µM (pre-log); metric: EC50; scale: log10

Below, each entry is followed by its recorded log10 of EC50 result.
> print(dat)
                                   compound  reported.value
1  O=C(O)CCCCCC[C@@H]1[C@@H](c2ccc3c(c2)CCC3O)[C@H](O)C[C@H]1Cl (some centres unmarked)            0.48
2  COC(=O)CCCCCC[C@@H]1[C@@H](c2ccc3c(c2)CCC3)[C@H](O)C[C@H]1Cl           -0.30
3  COC(=O)CCCCCC[C@@H]1[C@@H](c2ccc3c(c2)CCC3O)[C@H](O)C[C@H]1Cl (some centres unmarked)            1.24
4  CC(C)(C)c1ccc([C@H]2[C@H](O)CC(=O)[C@@H]2CCCCCCC(=O)O)cc1            0.63

Data request: Observed log10 of EC50 on hTP (Homo sapiens) for "Cc1ccc([C@H]2[C@H](O)CC(=O)[C@@H]2CCCCCCC(=O)O)cc1" , please.
Data returned: -1.03

Data request: Which log10 of EC50 is reported with hTP (Homo sapiens) for this entry: "O=C(O)CCCCCC[C@@H]1[C@@H](c2ccc3c(c2)CCC3)[C@H](O)C[C@H]1Cl" ?
Data returned: -0.70

###

The following compounds are shown together with reported pEC50 values.
target: hTP (Homo sapiens); construct: expressed in transfected cells; host or cells: HEK-293(EBNA); assay: FLIPR calcium signal, hTP; assay type: cell-based; settings: FLIPR Ca2+ signal, HEK-293(EBNA); read-out: FUNCTIONAL EC50 HTP
pEC50: −log10 of the molar value.

> print(dat)
                                   compound       tested.system  reported.value
1  CC(C)(C)c1ccc([C@@H]2[C@@H](C/C=C\CCCC(=O)O)[C@H](Cl)C[C@H]2O)cc1  hTP (Homo sapiens)            5.90
2  COC(=O)CCC/C=C\C[C@H]1C(=O)C[C@@H](O)[C@@H]1c1ccc(C(C)(C)C)cc1  hTP (Homo sapiens)          < 5.00
3  CCCC1(C(O)c2cccc([C@@H]3[C@@H](C/C=C\CCCC(=O)O)[C@H](Cl)C[C@H]3O)c2)CCC1 (stereo partly shown)  hTP (Homo sapiens)          < 5.00

Proceeding to the next compound to report its pEC50.
Data request: # pEC50 lookup, item CC(C)(C)c1ccc([C@@H]2[C@@H](CCCCCCC(=O)O)[C@H](Cl)C[C@H]2O)cc1 [drawing 70]
Data returned: < 5.00

###

biological target: HEK-EBNA cells expressing a PG EP2 receptor subtype (Homo sapiens, UniProt P43116); construct: expressed in transfected cells; host or cells: HEK-EBNA; assay: cAMP assay, EP2; type: cell-based; settings: Table 3, third part; value in parentheses; read-out: EP2 EC50 in a cAMP mediated assay
Sequence (P43116 whole entry): as the sequence (P43116 whole entry) above
PROPERTY: pEC50
pEC50 field: float, defined as -log10 of concentration (mol/L).

Data request: Item under review: CCCCCC(C)c1ccc([C@@H]2[C@@H](C/C=C\CCCC(=O)O)[C@H](C#N)C[C@H]2C)cc1 (stereo partly shown) . Reported pEC50?
Data returned: 8.40

###

system: Beagle dogs; experiment: Ocular surface hyperemia, dogs; assay type: in vivo; settings: Conc. 0.10% (0.1%) g/100 mL, score
Outcome label depends on DOG Max. hyperemia relative to 0.9: at/above gives Y, below gives N.

Worked set:
> print(dat)
                                   molecule  tested.system  answer.label
1  CCCCCC(=O)c1ccc([C@@H]2[C@@H](C/C=C\CCCC(=O)OC(C)C)[C@H](Cl)C[C@H]2O)cc1    Beagle dogs             N
2  CC(C)OC(=O)CCC/C=C\C[C@@H]1[C@@H](c2ccc(C(C)(C)CO)cc2)[C@H](O)C[C@H]1Cl    Beagle dogs             N
3  CCCCCC(=O)c1ccc([C@@H]2[C@@H](C/C=C\CCCC(=O)O)[C@H](Cl)C[C@H]2O)cc1    Beagle dogs             Y
4  CCCCCC(O)c1ccc([C@@H]2[C@@H](C/C=C\CCCC(=O)OC(C)C)[C@H](Cl)C[C@H]2Cl)cc1 (stereo partly drawn)    Beagle dogs             N

Data request: Answer whether DOG Max. hyperemia of O=C(O)CCC/C=C\C[C@@H]1[C@@H](c2ccc(C(O)C3CCCCC3)cc2)[C@H](O)C[C@H]1Cl (stereo partly drawn) [drawing 239] is greater than or equal to 0.9.
Data returned: Y

###

molecular target: hEP3A/Gqi5 (Homo sapiens, UniProt P43115); construct: expressed in transfected cells; host or cells: HEK-293(EBNA); experiment: FLIPR calcium signal, hEP3A; type: cell-based; conditions: read-out: Other Receptors EC50 hEP3A
Sequence (P43115 whole entry): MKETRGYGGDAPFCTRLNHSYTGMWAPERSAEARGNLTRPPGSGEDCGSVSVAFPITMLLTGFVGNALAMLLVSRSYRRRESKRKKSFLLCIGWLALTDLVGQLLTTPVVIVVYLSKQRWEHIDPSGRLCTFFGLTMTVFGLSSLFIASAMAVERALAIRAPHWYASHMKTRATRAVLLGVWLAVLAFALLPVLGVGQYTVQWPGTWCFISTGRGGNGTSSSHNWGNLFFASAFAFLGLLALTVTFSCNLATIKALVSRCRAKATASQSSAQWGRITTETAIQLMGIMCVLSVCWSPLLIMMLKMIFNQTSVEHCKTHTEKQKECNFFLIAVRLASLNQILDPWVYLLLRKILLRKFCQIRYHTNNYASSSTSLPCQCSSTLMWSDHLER
PROPERTY: pEC50
Please report pEC50 as the negative decimal logarithm of the molar concentration, giving only the number.

Answered examples (2):
> print(dat)
                                   compound  reported.value
1  CCCCCC(O)c1ccc(N2C(=O)CC[C@@H]2CCCc2ccc(C(=O)O)s2)cc1 (some centres unmarked) [drawing 173]            6.81
2  CCCCCC(O)c1ccc(N2C(=O)CC[C@@H]2CCCc2ccc(C(=O)O)s2)cc1 (single isomer, unassigned) [drawing 178]            7.92

Data request: Any idea what pEC50 was measured for CCCCCC(O)c1ccc(N2C(=O)CC[C@@H]2CCCc2ccc(C(=O)O)s2)cc1 (single isomer, unassigned) [drawing 151] ?
Data returned: 6.81

Data request: Given the compound CCCCCC(O)c1ccc(N2C(=O)CC[C@@H]2CCCc2ccc(C(=O)O)s2)cc1 (single isomer, unassigned) [drawing 179] , what is its reported pEC50?
Data returned: 6.81

Data request: Any idea what its pEC50 is? The compound is CCCCCCC(O)c1ccc(N2C(=O)CC[C@@H]2CCCc2ccc(C(=O)O)s2)cc1 (some centres unmarked) [drawing 154]
Data returned: 7.33
